ASSAY COMMENT: Plasma and CSF pharmacokinetics, 6-week Phase IIa study (Example 2)
Assay type: in vivo, human
MEASUREMENT SETUP: human, CSF relative to plasma, oral; same time point; read-out: CSF drug levels as share of plasma drug levels
Description: Investigators and patients were blinded to the dosage strength. The first 3 patients were randomly assigned to receive either 40 or 125 mg twice daily, with dosing level blinded. The remaining patients (up to 7 patients) received 40 mg twice daily on an open-label basis. […] Quantitative EEG was conducted as a measure of the effects of inflammatory cytokines on synaptic function and the effects of modulation of p38 MAPK on synaptic plasticity. […]
PARAMETER: Kp

compound="O=c1ncn2nc(Sc3ccc(F)cc3F)ccc2c1-c1c(Cl)cccc1Cl [VX-745]" endpoint_value=0.06
